Listed here: compounds with reported pIC50 for Receptor-type tyrosine-protein kinase FLT3 (Homo sapiens, UniProt P36888).
The meaning of pIC50 here: minus log10 of the concentration in molar units.

See these solved cases before continuing.
CC(C)c1nc(Nc2c[nH]nc2C(=O)Nc2ccc(N3CCNCC3)cc2)c2ccsc2n1 7.95
CN1CCN(Cc2ccc(NC(=O)c3n[nH]cc3Nc3nc(C4CC4)nc4sccc34)cc2)CC1 7.80
Cc1nc(Nc2c[nH]nc2C(=O)Nc2ccc(N3CCN(C)CC3)cc2)c2ccsc2n1 9.02

Could you now look at the following compound, please?
Could you share which pIC50 value was measured for Cc1nc(Nc2c[nH]nc2C(=O)Nc2ccc(N3CCOCC3)cc2)c2ccsc2n1 ?
8.42

Reference for the values: ChEMBL document CHEMBL4152300
